system: Fibroblast; assay: Multiplex assay against human fibroblast; type: toxicity, cell-based; conditions: 12 h, 1 µM, compound concentration 1 uM, replicate 2
value-kind: Population Tubulin-Different-Phenotype (%)
Expressed in %, but write only the number.

// Population Tubulin-Different-Phenotype (%) lookup, key: Cc1noc(-c2ccc(-c3ccc(CC(=O)O)cc3)cc2)c1NC(=O)O[C@H](C)c1ccccc1Cl
26

What about C[C@H](N)COC(=O)[C@@H](CCCCN)NC(=O)Cc1c(-c2ccc3ccccc3c2)[nH]c2c1ccc1ccccc12 ?
36

What about CCCCC(=O)N(Cc1ccc(-c2ccccc2-c2nnn[nH]2)cc1)[C@H](C(=O)O)C(C)C ?
36

What about O=C(NCCN1CCC(n2c(=O)[nH]c3cc(Cl)ccc32)CC1)c1ccc(F)cc1 [HALOPEMIDE] ?
56

What about Cl.NCCc1ccc(O)c(O)c1 [DOPAMINE HYDROCHLORIDE] ?
45

What about CC(C)(C)c1cc(NC(=O)Nc2ccc(-c3cn4c(n3)sc3cc(OCCN5CCOCC5)ccc34)cc2)no1 [QUIZARTINIB] ?
41

###

system: U2OS; test: Multiplex assay against U2OS; assay type: toxicity, cell-based; conditions: human, 48 h, 1 µM, compound concentration 1 uM, replicate 1
Provide the recorded Population Hoechst High Intensity Objects (%) for the entries that follow.
Expressed in %, but write only the number.

// Population Hoechst High Intensity Objects (%) lookup, key: Cc1sc2c(c1C)C(c1ccc(Cl)cc1)=N[C@@H](CC(=O)NCCCCCCCCNC(=O)COc1cccc3c1C(=O)N(C1CCC(=O)NC1=O)C3=O)c1nnc(C)n1-2 (stereo partly drawn)
10

What about Cc1noc(-c2ccc(-c3ccc(CC(=O)O)cc3)cc2)c1NC(=O)O[C@H](C)c1ccccc1Cl ?
1

What about COc1ccccc1N1CCN(C[C@@H](C(=O)NC(C)(C)C)c2ccccc2)CC1.Cl.Cl ?
2

What about CCCCC1=NC2(CCCC2)C(=O)N1Cc1ccc(-c2ccccc2-c2nnn[nH]2)cc1 ?
2

What about Cl.NCCc1ccc(O)c(O)c1 [DOPAMINE HYDROCHLORIDE] ?
2

What about Cc1cnc(-c2cc(N3CCN(C(=O)CCS(C)(=O)=O)CC3)ncc2Cl)c(C)c1 ?
0

What about CCCCCC(O)/C=C/[C@H]1C(=O)CC(O)C1C/C=C\CCCC(=O)O (stereo partly drawn) ?
2

What about C[C@H](N)COC(=O)[C@@H](CCCCN)NC(=O)Cc1c(-c2ccc3ccccc3c2)[nH]c2c1ccc1ccccc12 ?
1

What about CN[C@@H](C)C(=O)N[C@H](C(=O)N1CCC[C@H]1C(=O)Nc1snnc1-c1ccccc1)C1CCCCC1 ?
8

What about CCc1cc2cc(NS(=O)(=O)c3ccc(C#N)cc3)ccc2n(CC)c1=O ?
2

What about Br.CS(=O)(=O)Nc1c(O)ccc2c1CCCC2C1=NCCN1 (stereo not drawn) ?
1

What about CN(C)C(=O)Cn1cc(-c2ccc(-c3cncc4ccccc34)cc2)cn1 ?
2

What about O=C(NCCN1CCC(n2c(=O)[nH]c3cc(Cl)ccc32)CC1)c1ccc(F)cc1 [HALOPEMIDE] ?
2

What about COc1cccc2c1c(NS(=O)(=O)c1ccc(Cl)s1)nn2Cc1cccc(CNC(=O)C(C)(C)O)c1 ?
1

What about Cl.N=C(N)NC(=O)Cc1c(Cl)cccc1Cl [GUANFACINE HYDROCHLORIDE] ?
2

What about CC[C@@H](C)Nc1nc(C)nc2c(-c3ccc(OC)nc3C)c(C)nn12 ?
1

What about CC(C)COc1ccc(CNC(=O)N(Cc2ccc(F)cc2)C2CCN(C)CC2)cc1 ?
2

What about COC[C@@H](c1ccc(C(F)(F)F)cc1)N1CCN(C2(C)CCN(C(=O)c3c(C)ncnc3C)CC2)C[C@@H]1C.O=C(O)/C=C\C(=O)O [VICRIVIROC MALEATE] ?
3

What about CN1CCN(c2cc(-c3ccccc3)nc(N)n2)CC1 ?
2

What about N#Cc1cc(F)cc(-c2nc(-c3ccc(F)cn3)no2)c1 ?
1

What about NCCc1cn(S(=O)(=O)c2c(Cl)nc3sccn23)c2ccccc12.O=C(O)C(=O)O ?
1

What about O=C1[C@H](Cc2ccc(O)cc2)N2C(=O)CCN(C(=O)NCc3ccccc3)[C@H]2CN1Cc1cccc2ccccc12 ?
3

What about CC(=O)Nc1cccc2c1c(Sc1ccc(Cl)cc1)c(C)n2CC(=O)O ?
1

What about Cc1onc(-c2ccccc2Cl)c1C(=O)N(C)c1ccc(Cl)cc1 ?
2

What about Cc1c(CC(=O)O)c2cccnc2n1Cc1ccc(S(C)(=O)=O)cc1C(F)(F)F ?
2

What about CC(C)(C)c1cc(NC(=O)Nc2ccc(-c3cn4c(n3)sc3cc(OCCN5CCOCC5)ccc34)cc2)no1 ?
3

What about CC(C)c1noc(N2CCC(COc3ccc(-c4ccc(S(C)(=O)=O)cc4)nc3)CC2)n1 ?
2

What about N#Cc1c(Oc2cccc(OS(=O)(=O)CCCC(F)(F)F)c2)cccc1C(F)(F)F ?
3

What about CCCOc1ccc2[nH]cc(C3=CCNCC3)c2n1.Cl ?
2

What about O=C(CCCc1ccccc1)Nc1nc2ccccc2c(=O)s1 ?
7

What about Cc1cccc(NC(=O)CN2CCC(c3ccccn3)CC2)c1.Cl.Cl ?
2

What about CCCCC(=O)N(Cc1ccc(-c2ccccc2-c2nnn[nH]2)cc1)[C@H](C(=O)O)C(C)C ?
2

What about CC(/C=C1\SC(=S)N(CCCC(=O)Nc2ccc(C(=O)O)c(O)c2)C1=O)=C\c1ccccc1 ?
2

###

tested on: HEK-293T; experiment: Multiplex assay against HEK293T; type: toxicity, cell-based; details: human, 48 h, 10 µM, compound concentration 10 uM, replicate 1
Label t when Population Hoechst High Intensity Objects (%) is strictly below 4%; at or above that, label f.

Consider the compound CC(C)c1noc(N2CCC(COc3ccc(-c4ccc(S(C)(=O)=O)cc4)nc3)CC2)n1 . Is its Population Hoechst High Intensity Objects (%) strictly less than 4%?
f

What about NCCc1cn(S(=O)(=O)c2c(Cl)nc3sccn23)c2ccccc12.O=C(O)C(=O)O ?
f

What about COc1ccccc1N1CCN(C[C@@H](C(=O)NC(C)(C)C)c2ccccc2)CC1.Cl.Cl ?
f

What about CC(C)(C)c1cc(NC(=O)Nc2ccc(-c3cn4c(n3)sc3cc(OCCN5CCOCC5)ccc34)cc2)no1 ?
f

What about CC(=O)Nc1cccc2c1c(Sc1ccc(Cl)cc1)c(C)n2CC(=O)O ?
t

What about CN[C@@H](C)C(=O)N[C@H](C(=O)N1CCC[C@H]1C(=O)Nc1snnc1-c1ccccc1)C1CCCCC1 ?
f

What about CN1CCN(c2cc(-c3ccccc3)nc(N)n2)CC1 ?
t

What about CCCCCC(O)/C=C/[C@H]1C(=O)CC(O)C1C/C=C\CCCC(=O)O (stereo partly drawn) ?
t

What about O=C(NCCN1CCC(n2c(=O)[nH]c3cc(Cl)ccc32)CC1)c1ccc(F)cc1 [HALOPEMIDE] ?
f

What about CC(/C=C1\SC(=S)N(CCCC(=O)Nc2ccc(C(=O)O)c(O)c2)C1=O)=C\c1ccccc1 ?
t

What about CCCCC(=O)N(Cc1ccc(-c2ccccc2-c2nnn[nH]2)cc1)[C@H](C(=O)O)C(C)C ?
t

What about O=C1[C@H](Cc2ccc(O)cc2)N2C(=O)CCN(C(=O)NCc3ccccc3)[C@H]2CN1Cc1cccc2ccccc12 ?
f

What about CCCCC1=NC2(CCCC2)C(=O)N1Cc1ccc(-c2ccccc2-c2nnn[nH]2)cc1 ?
t

What about CN(C)C(=O)Cn1cc(-c2ccc(-c3cncc4ccccc34)cc2)cn1 ?
f

What about N#Cc1cc(F)cc(-c2nc(-c3ccc(F)cn3)no2)c1 ?
t

###

Provide the recorded Population Apoptotic (%) for the entries that follow.
test system: U2OS; test: Multiplex assay against U2OS; assay type: toxicity, cell-based; conditions: human, 12 h, 10 µM, compound concentration 10 uM, replicate 1
Expressed in %, but write only the number.

// Population Apoptotic (%) lookup, key: CCCCC1=NC2(CCCC2)C(=O)N1Cc1ccc(-c2ccccc2-c2nnn[nH]2)cc1 [IRBESARTAN]
91

What about CC(C)c1noc(N2CCC(COc3ccc(-c4ccc(S(C)(=O)=O)cc4)nc3)CC2)n1 [GSK-1292263] ?
90

What about NCCc1cn(S(=O)(=O)c2c(Cl)nc3sccn23)c2ccccc12.O=C(O)C(=O)O ?
71

What about COC[C@@H](c1ccc(C(F)(F)F)cc1)N1CCN(C2(C)CCN(C(=O)c3c(C)ncnc3C)CC2)C[C@@H]1C.O=C(O)/C=C\C(=O)O [VICRIVIROC MALEATE] ?
86

What about CCCCCC(O)/C=C/[C@H]1C(=O)CC(O)C1C/C=C\CCCC(=O)O (stereo partly drawn) ?
71

What about Br.CS(=O)(=O)Nc1c(O)ccc2c1CCCC2C1=NCCN1 (stereo not drawn) ?
69

What about N#Cc1c(Oc2cccc(OS(=O)(=O)CCCC(F)(F)F)c2)cccc1C(F)(F)F ?
78

What about COc1cccc2c1c(NS(=O)(=O)c1ccc(Cl)s1)nn2Cc1cccc(CNC(=O)C(C)(C)O)c1 ?
76

What about Cc1c(CC(=O)O)c2cccnc2n1Cc1ccc(S(C)(=O)=O)cc1C(F)(F)F [FEVIPIPRANT] ?
90

What about CN[C@@H](C)C(=O)N[C@H](C(=O)N1CCC[C@H]1C(=O)Nc1snnc1-c1ccccc1)C1CCCCC1 [GDC-0152] ?
72

What about C[C@H](N)COC(=O)[C@@H](CCCCN)NC(=O)Cc1c(-c2ccc3ccccc3c2)[nH]c2c1ccc1ccccc12 ?
78

What about Cc1sc2c(c1C)C(c1ccc(Cl)cc1)=N[C@@H](CC(=O)NCCCCCCCCNC(=O)COc1cccc3c1C(=O)N(C1CCC(=O)NC1=O)C3=O)c1nnc(C)n1-2 (stereo partly drawn) ?
86

What about CC[C@@H](C)Nc1nc(C)nc2c(-c3ccc(OC)nc3C)c(C)nn12 [PEXACERFONT] ?
90

What about Cc1noc(-c2ccc(-c3ccc(CC(=O)O)cc3)cc2)c1NC(=O)O[C@H](C)c1ccccc1Cl ?
78

What about O=C(CCCc1ccccc1)Nc1nc2ccccc2c(=O)s1 ?
72

What about CCCOc1ccc2[nH]cc(C3=CCNCC3)c2n1.Cl ?
86

What about CCCCC(=O)N(Cc1ccc(-c2ccccc2-c2nnn[nH]2)cc1)[C@H](C(=O)O)C(C)C ?
75

What about Cc1onc(-c2ccccc2Cl)c1C(=O)N(C)c1ccc(Cl)cc1 ?
79

What about CCc1cc2cc(NS(=O)(=O)c3ccc(C#N)cc3)ccc2n(CC)c1=O ?
66

What about CN(C)C(=O)Cn1cc(-c2ccc(-c3cncc4ccccc34)cc2)cn1 ?
66

What about O=C(NCCN1CCC(n2c(=O)[nH]c3cc(Cl)ccc32)CC1)c1ccc(F)cc1 [HALOPEMIDE] ?
68

What about CC(=O)Nc1cccc2c1c(Sc1ccc(Cl)cc1)c(C)n2CC(=O)O [AZD1981] ?
83

What about COc1ccccc1N1CCN(C[C@@H](C(=O)NC(C)(C)C)c2ccccc2)CC1.Cl.Cl ?
46

What about Cc1cnc(-c2cc(N3CCN(C(=O)CCS(C)(=O)=O)CC3)ncc2Cl)c(C)c1 ?
85

What about CN1CCN(c2cc(-c3ccccc3)nc(N)n2)CC1 ?
86

What about Cl.N=C(N)NC(=O)Cc1c(Cl)cccc1Cl [GUANFACINE HYDROCHLORIDE] ?
87

What about O=C1[C@H](Cc2ccc(O)cc2)N2C(=O)CCN(C(=O)NCc3ccccc3)[C@H]2CN1Cc1cccc2ccccc12 ?
60

What about CC(/C=C1\SC(=S)N(CCCC(=O)Nc2ccc(C(=O)O)c(O)c2)C1=O)=C\c1ccccc1 ?
91
